- System: Enterococcus faecalis
- assay-method-text: Antimicrobial activity against Enterococcus faecalis 15376 over-expressing vanA
- Assay type: functional
measured-attribute: MIC (µg/mL)
Report the figure in µg/mL without appending any unit label.

Request - read-out MIC | tested on Enterococcus faecalis | compound CC(=O)N[C@@H]1[C@@H](OC(C)=O)[C@H](OC(C)=O)[C@@H](COC(C)=O)O[C@H]1Sc1c2ccccc2cn1[C@H]1C(=O)N[C@@H]2Cc3ccc(c(Cl)c3)Oc3cc4cc(c3O)Oc3ccc(cc3Cl)[C@@H](O[C@@H]3O[C@H](CO)[C@@H](O)[C@H](O)[C@H]3NC(C)=O)[C@@H]3NC(=O)[C@H](NC(=O)[C@@H]4NC(=O)[C@@H](NC2=O)c2cc(O)cc(c2)Oc2cc1ccc2O)c1ccc(O)c(c1)-c1c(O)cc(O)cc1[C@@H](C(=O)O)NC3=O 0.0625

---

- Test system: Staphylococcus epidermidis
- assay-method-text: Antimicrobial activity against Staphylococcus epidermidis ATCC 35984 biofilms
- Assay type: functional
Assign MIC to each entry below.
Report the figure in µg/mL without appending any unit label.

I'd like to know its MIC. The compound in question is CC(=O)N[C@H]1[C@H](O[C@@H]2c3ccc(c(Cl)c3)Oc3cc4cc(c3O)Oc3ccc(cc3Cl)C[C@H]3NC(=O)[C@H](n5cc6cc7ccccc7cc6c5Sc5nc6ccccc6s5)c5ccc(O)c(c5)Oc5cc(O)cc(c5)[C@H](NC3=O)C(=O)N[C@H]4C(=O)N[C@H]3C(=O)N[C@@H]2C(=O)N[C@H](C(=O)O)c2cc(O)cc(O)c2-c2cc3ccc2O)O[C@H](CO)[C@@H](O)[C@@H]1O 0.015

I'd like to know its MIC. The compound in question is CC(=O)N[C@H]1[C@H](O[C@@H]2c3ccc(c(Cl)c3)Oc3cc4cc(c3O)Oc3ccc(cc3Cl)C[C@H]3NC(=O)[C@H](n5cc6ccccc6c5S[C@@H]5O[C@H](CO)[C@@H](O)[C@H](O)[C@H]5O)c5ccc(O)c(c5)Oc5cc(O)cc(c5)[C@H](NC3=O)C(=O)N[C@H]4C(=O)N[C@H]3C(=O)N[C@@H]2C(=O)N[C@H](C(=O)O)c2cc(O)cc(O)c2-c2cc3ccc2O)O[C@H](CO)[C@@H](O)[C@@H]1O 0.0075

I'd like to know its MIC. The compound in question is CC(=O)N[C@@H]1[C@@H](OC(C)=O)[C@H](OC(C)=O)[C@@H](COC(C)=O)O[C@H]1Sc1c2ccccc2cn1[C@H]1C(=O)N[C@@H]2Cc3ccc(c(Cl)c3)Oc3cc4cc(c3O)Oc3ccc(cc3Cl)[C@@H](O[C@@H]3O[C@H](CO)[C@@H](O)[C@H](O)[C@H]3NC(C)=O)[C@@H]3NC(=O)[C@H](NC(=O)[C@@H]4NC(=O)[C@@H](NC2=O)c2cc(O)cc(c2)Oc2cc1ccc2O)c1ccc(O)c(c1)-c1c(O)cc(O)cc1[C@@H](C(=O)O)NC3=O 0.0075

I'd like to know its MIC. The compound in question is CC(=O)N[C@H]1[C@H](O[C@@H]2c3ccc(c(Cl)c3)Oc3cc4cc(c3O)Oc3ccc(cc3Cl)C[C@H]3NC(=O)[C@H](n5cc6ccccc6c5Sc5ncccn5)c5ccc(O)c(c5)Oc5cc(O)cc(c5)[C@H](NC3=O)C(=O)N[C@H]4C(=O)N[C@H]3C(=O)N[C@@H]2C(=O)N[C@H](C(=O)O)c2cc(O)cc(O)c2-c2cc3ccc2O)O[C@H](CO)[C@@H](O)[C@@H]1O 0.0165

I'd like to know its MIC. The compound in question is CC(=O)N[C@H]1[C@H](O[C@@H]2c3ccc(c(Cl)c3)Oc3cc4cc(c3O)Oc3ccc(cc3Cl)C[C@H]3NC(=O)[C@H](n5cc6ccccc6c5S[C@@H]5O[C@H](COC(C)=O)[C@@H](OC(C)=O)[C@H](OC(C)=O)[C@H]5OC(C)=O)c5ccc(O)c(c5)Oc5cc(O)cc(c5)[C@H](NC3=O)C(=O)N[C@H]4C(=O)N[C@H]3C(=O)N[C@@H]2C(=O)N[C@H](C(=O)O)c2cc(O)cc(O)c2-c2cc3ccc2O)O[C@H](CO)[C@@H](O)[C@@H]1O 2

I'd like to know its MIC. The compound in question is CC(=O)N[C@@H]1[C@@H](O)[C@H](O)[C@@H](CO)O[C@H]1Sc1c2ccccc2cn1[C@H]1C(=O)N[C@@H]2Cc3ccc(c(Cl)c3)Oc3cc4cc(c3O)Oc3ccc(cc3Cl)[C@@H](O[C@@H]3O[C@H](CO)[C@@H](O)[C@H](O)[C@H]3NC(C)=O)[C@@H]3NC(=O)[C@H](NC(=O)[C@@H]4NC(=O)[C@@H](NC2=O)c2cc(O)cc(c2)Oc2cc1ccc2O)c1ccc(O)c(c1)-c1c(O)cc(O)cc1[C@@H](C(=O)O)NC3=O 0.0313

I'd like to know its MIC. The compound in question is CC(=O)N[C@H]1[C@H](O[C@@H]2c3ccc(c(Cl)c3)Oc3cc4cc(c3O)Oc3ccc(cc3Cl)C[C@H]3NC(=O)[C@H](n5cc6cc7ccccc7cc6c5Sc5ncccn5)c5ccc(O)c(c5)Oc5cc(O)cc(c5)[C@H](NC3=O)C(=O)N[C@H]4C(=O)N[C@H]3C(=O)N[C@@H]2C(=O)N[C@H](C(=O)O)c2cc(O)cc(O)c2-c2cc3ccc2O)O[C@H](CO)[C@@H](O)[C@@H]1O 0.015

I'd like to know its MIC. The compound in question is CC(=O)N[C@H]1[C@H](O[C@@H]2c3ccc(c(Cl)c3)Oc3cc4cc(c3O)Oc3ccc(cc3Cl)C[C@H]3NC(=O)[C@H](n5cc6ccccc6c5Sc5ccccc5)c5ccc(O)c(c5)Oc5cc(O)cc(c5)[C@H](NC3=O)C(=O)N[C@H]4C(=O)N[C@H]3C(=O)N[C@@H]2C(=O)N[C@H](C(=O)O)c2cc(O)cc(O)c2-c2cc3ccc2O)O[C@H](CO)[C@@H](O)[C@@H]1O 0.0165

I'd like to know its MIC. The compound in question is CC(=O)N[C@H]1[C@H](O[C@@H]2c3ccc(c(Cl)c3)Oc3cc4cc(c3O)Oc3ccc(cc3Cl)C[C@H]3NC(=O)[C@H](n5cc6ccccc6c5Sc5nc6ccccc6s5)c5ccc(O)c(c5)Oc5cc(O)cc(c5)[C@H](NC3=O)C(=O)N[C@H]4C(=O)N[C@H]3C(=O)N[C@@H]2C(=O)N[C@H](C(=O)O)c2cc(O)cc(O)c2-c2cc3ccc2O)O[C@H](CO)[C@@H](O)[C@@H]1O 0.0075

I'd like to know its MIC. The compound in question is CC(=O)N[C@H]1[C@H](O[C@@H]2c3ccc(c(Cl)c3)Oc3cc4cc(c3O)Oc3ccc(cc3Cl)C[C@H]3NC(=O)[C@H](n5cc6cc7ccccc7cc6c5Sc5ccccc5)c5ccc(O)c(c5)Oc5cc(O)cc(c5)[C@H](NC3=O)C(=O)N[C@H]4C(=O)N[C@H]3C(=O)N[C@@H]2C(=O)N[C@H](C(=O)O)c2cc(O)cc(O)c2-c2cc3ccc2O)O[C@H](CO)[C@@H](O)[C@@H]1O 0.0313

I'd like to know its MIC. The compound in question is CC(=O)N[C@@H]1[C@H](Oc2c3cc4cc2Oc2ccc(cc2Cl)[C@@H](O[C@@H]2O[C@@H](CO)[C@@H](O)[C@H](O)[C@@H]2NC(C)=O)[C@@H]2NC(=O)[C@H](NC(=O)[C@@H]4NC(=O)[C@H]4NC(=O)[C@@H](Cc5ccc(c(Cl)c5)O3)NC(=O)[C@H](N)c3ccc(O)c(c3)Oc3cc(O)cc4c3)c3ccc(O)c(c3)-c3c(O[C@H]4O[C@H](CO)[C@@H](O)[C@@H](O)[C@@H]4O)cc(O)cc3[C@@H](C(=O)O)NC2=O)O[C@@H](CO)[C@@H](O)[C@@H]1O 2

// data source = ChEMBL document CHEMBL2203009
